Known melting point of a selection of compounds

Here's what some known entries look like.
[
  {
    "COMPOUND": "Cc1cc(I)ccc1Nc1c(C(=O)NOCCO)cc(Br)c(F)c1F [Example 13]",
    "OUTCOME_MEASURE": "melting point",
    "ASSAY_VALUE": "208.2 to 209.6 °C"
  },
  {
    "COMPOUND": "O=C(NOCC(O)CO)c1cc(Cl)c(F)c(F)c1Nc1ccc(I)cc1Cl (stereo not shown) [Example 34]",
    "OUTCOME_MEASURE": "melting point",
    "ASSAY_VALUE": "152 to 154 °C"
  },
  {
    "COMPOUND": "O=C(NOCCO)c1ccc(F)c(F)c1Nc1ccccc1F [Example 25]",
    "OUTCOME_MEASURE": "melting point",
    "ASSAY_VALUE": "129.6 to 130.4 °C"
  },
  {
    "COMPOUND": "O=C(NOCCO)c1cc(Br)c(F)c(F)c1Nc1ccc(I)cc1F [Example 11]",
    "OUTCOME_MEASURE": "melting point",
    "ASSAY_VALUE": "189 to 190 °C"
  },
  {
    "COMPOUND": "Cc1cc(I)ccc1Nc1c(C(=O)NOCC2(CO)CC2)ccc(F)c1F [Example 70]",
    "OUTCOME_MEASURE": "melting point",
    "ASSAY_VALUE": "165.4 to 165.6 °C"
  },
  {
    "COMPOUND": "Cc1cc(I)ccc1Nc1c(C(=O)NOC(C)(C)CO)ccc(F)c1F [Example 63]",
    "OUTCOME_MEASURE": "melting point",
    "ASSAY_VALUE": "175 to 176 °C"
  },
  {
    "COMPOUND": "Cc1cc(I)ccc1Nc1c(C(=O)NOCCO)ccc(F)c1F [Example 2]",
    "OUTCOME_MEASURE": "melting point",
    "ASSAY_VALUE": "181 to 183 °C"
  },
  {
    "COMPOUND": "O=C(NOC[C@H](O)CO)c1ccc(F)c(F)c1Nc1ccc(Br)cc1F [Example 55]",
    "OUTCOME_MEASURE": "melting point",
    "ASSAY_VALUE": "52 °C"
  },
  {
    "COMPOUND": "O=C(NOC[C@@H](O)CO)c1cc(Cl)c(F)c(F)c1Nc1ccc(I)cc1F [Example 54]",
    "OUTCOME_MEASURE": "melting point",
    "ASSAY_VALUE": "157 to 158 °C"
  },
  {
    "COMPOUND": "O=C(NOCC(O)CO)c1ccc(F)c(F)c1Nc1ccc(Br)cc1F (stereo not shown) [Example 44]",
    "OUTCOME_MEASURE": "melting point",
    "ASSAY_VALUE": "110 to 117 °C (dec.)"
  }
]

IN: # query: melting point of entry Cc1cc(I)ccc1Nc1c(C(=O)NOCCO)cc(F)c(F)c1F [Example 1]
OUT: 205 to 207 °C (dec.)

IN: Would you mind telling me what melting point value was observed for O=C(NOCCO)c1cc(Cl)c(F)c(F)c1Nc1ccc(I)cc1 [Example 7] ?
OUT: 174 to 176 °C

IN: Query (compound): COCC(O)CONC(=O)c1ccc(F)c(F)c1Nc1ccc(I)cc1C (stereo not shown) [Example 68] ; field requested: melting point
OUT: 136.2 to 136.5 °C

IN: Tell me the measured melting point of CC(C)(O)CONC(=O)c1ccc(F)c(F)c1Nc1ccc(I)cc1F [Example 67] , please.
OUT: 156.7 to 156.9 °C

###

Reported melting point values follow for various molecules

Guide cases for melting point, answers given:
[
  {
    "MOLECULE": "O=C(NOCCO)c1ccc(F)c(F)c1Nc1ccc(I)cc1Cl",
    "melting point": "173 to 175 °C"
  },
  {
    "MOLECULE": "O=C(NOC(CO)CO)c1ccc(F)c(F)c1Nc1ccc(I)cc1F",
    "melting point": "111 to 114 °C"
  },
  {
    "MOLECULE": "O=C(NOCC1(CO)CC1)c1cc(Br)c(F)c(F)c1Nc1ccc(I)cc1Cl",
    "melting point": "152.6 to 153.9 °C"
  }
]

// below: melting point requested for another molecule
IN: Give the measured melting point of C=COCCONC(=O)c1cc(Cl)c(F)c(F)c1Nc1ccc(I)cc1F .
OUT: 119 to 120 °C

###

OUTCOME_MEASURE: melting point

[
  {
    "COMPOUND": "CC1(C)OCC(CONC(=O)c2ccc(F)c(F)c2Nc2ccc(I)cc2F)O1 (stereo not shown)",
    "melting point": "114 to 115 °C"
  },
  {
    "COMPOUND": "O=C(NOCCO)c1ccc(F)c(F)c1Nc1ccc(F)cc1F",
    "melting point": "141.1 to 141.6 °C"
  },
  {
    "COMPOUND": "CC(C)(O)CONC(=O)c1ccc(F)c(F)c1Nc1ccc(I)cc1Cl",
    "melting point": "140 to 153 °C"
  },
  {
    "COMPOUND": "C=COCCONC(=O)c1ccc(F)cc1Nc1ccc(I)cc1F",
    "melting point": "103.5 to 104 °C"
  },
  {
    "COMPOUND": "O=C(NOC[C@@H](O)CO)c1cc(Cl)c(F)c(F)c1Nc1ccc(I)cc1Cl",
    "melting point": "153 to 154 °C"
  }
]

IN: Param item = O=C(NOCC(O)CO)c1cc(Cl)c(F)c(F)c1Nc1ccc(I)cc1F (stereo not shown) ; retrieve measured melting point.
OUT: 152 to 155 °C

###

# Test system: MEK
# PROTOCOL: Cellular Assay for Measuring MEK Inhibition (inhibition of ERK phosphorylation in C26 cells, Western blot)
# Type: cell-based, murine
# CONDITION_INFO: 1 μM; ERK phosphorylation in C26 cells
OUTCOME_MEASURE: % Inhibition @ 1 μM (%)
Write down the numeric answer in % and omit the unit.

Some compounds with recorded % Inhibition @ 1 μM:
[
  {
    "COMPOUND": "Cc1cc(I)ccc1Nc1c(C(=O)NOCC(O)CN2CCOCC2)cc(Cl)c(F)c1F (stereo not drawn) [Example 150]",
    "% Inhibition @ 1 μM [%]": 99.9
  },
  {
    "COMPOUND": "Cc1cc(I)ccc1Nc1c(C(=O)NOC(C)CO)cc(F)c(F)c1F (stereo not drawn) [Example 122]",
    "% Inhibition @ 1 μM [%]": 87.3
  },
  {
    "COMPOUND": "CCC(O)CONC(=O)c1ccc(F)c(F)c1Nc1ccc(Br)cc1F (stereo not drawn) [Example 118]",
    "% Inhibition @ 1 μM [%]": 95.6
  },
  {
    "COMPOUND": "CC(CO)ONC(=O)c1ccc(F)c(F)c1Nc1ccc(F)cc1F (stereo not drawn) [Example 133]",
    "% Inhibition @ 1 μM [%]": 26.4
  },
  {
    "COMPOUND": "Cc1cc(I)ccc1Nc1c(C(=O)NOCC(C)O)cc(Br)c(F)c1F (stereo not drawn) [Example 159]",
    "% Inhibition @ 1 μM [%]": 100
  },
  {
    "COMPOUND": "O=C(NOCC(O)C(F)(F)F)c1ccc(F)c(F)c1Nc1ccc(Cl)cc1F (stereo not drawn) [Example 213]",
    "% Inhibition @ 1 μM [%]": 78.7
  }
]

IN: Please look up its % Inhibition @ 1 μM: CC(CO)ONC(=O)c1cc(F)c(F)c(F)c1Nc1ccc(I)cc1Cl (stereo not drawn) [Example 121]
OUT: 85.5

IN: Which % Inhibition @ 1 μM is listed for O=C(NOCC(O)COc1ccccc1)c1ccc(F)c(F)c1Nc1ccc(F)cc1F (stereo not drawn) [Example 195] ?
OUT: 26.7

IN: Please report the recorded % Inhibition @ 1 μM for Cc1cc(I)ccc1Nc1c(C(=O)NOCC(C)(C)O)cc(Cl)c(F)c1F [Example 176] .
OUT: 87.7

IN: Quick one: % Inhibition @ 1 μM for CC(C)(O)CONC(=O)c1cc(Cl)c(F)c(F)c1Nc1ccc(F)cc1F [Example 180] ?
OUT: 34

IN: Quick one: % Inhibition @ 1 μM for Cc1cc(I)ccc1Nc1c(C(=O)NOC(C)CO)cc(Cl)c(F)c1F (stereo not drawn) [Example 119] ?
OUT: 97.9

###

# Test system: carrageenan thermal hyperalgesia response
# PROTOCOL: Thermal hyperalgesia from intraplantar carrageenan in rats (Paw Withdrawal Latency)
# Format: in vivo
# CONDITION_INFO: rat, DOSE (PO) 10, 2 hours after drug administration
OUTCOME_MEASURE: % Inhibition (2 hr) (%)
Just the number please, in %, no unit attached.

Below, each entry is followed by its recorded % Inhibition (2 hr) result.
[
  {
    "MOLECULE": "O=C(NOCC(O)CO)c1cc(Cl)c(F)c(F)c1Nc1ccc(I)cc1Cl (stereo not shown)",
    "OUTCOME_MEASURE": "% Inhibition (2 hr)",
    "ASSAY_VALUE": 61.5
  },
  {
    "MOLECULE": "O=C(NOC[C@H](O)CO)c1ccc(F)c(F)c1Nc1ccc(Br)cc1F",
    "OUTCOME_MEASURE": "% Inhibition (2 hr)",
    "ASSAY_VALUE": 60
  },
  {
    "MOLECULE": "O=C(NOCC(O)CO)c1cc(Cl)c(F)c(F)c1Nc1ccc(I)cc1F (stereo not shown)",
    "OUTCOME_MEASURE": "% Inhibition (2 hr)",
    "ASSAY_VALUE": 61.0
  }
]

Attention now turns to another entry.
IN: Could you tell me which % Inhibition (2 hr) is on file for O=C(NOC[C@@H](O)CO)c1cc(Cl)c(F)c(F)c1Nc1ccc(I)cc1F ?
OUT: 52.9

Values were extracted from patent US6960614B2.
